Tested on: SEM cells
Assay: cell viability relative to DMSO control; higher = less cytotoxic
Details: RPMI 5 mM glucose + 10% FBS; 48 h; 15.4 µM
// NB: equality with 80% counts as NO; only cell viability strictly below is YES

Req: Quick check: does `O=C(O)CCn1c2c(c3ccccc31)C[C@H](N[S+](=O)([O-])c1ccc(F)cc1)CC2` have cell viability under 80%?
Resp: NO

Req: Consider `CCCCCCCCCC(=O)N[C@@H](Cc1c[nH]c2ccccc12)C(=O)N[C@H](CC(N)=O)C(=O)N[C@@H](CC(=O)O)C(=O)N[C@@H]1C(=O)NCC(=O)N[C@@H](CCCN)C(=O)N[C@@H](CC(=O)O)C(=O)N[C@H](C)C(=O)N[C@@H](CC(=O)O)C(=O)NCC(=O)N[C@H](CO)C(=O)N[C@@H]([C@@H](C)CC(=O)O)C(=O)N[C@@H](CC(=O)c2ccccc2N)C(=O)O[C@@H]1C` . Does its cell viability lie strictly below 80%?
Resp: NO

Req: Problem: For the compound `C[C@]12CC[C@H]3[C@@H](C\C=C/4C[C@@H](O)CC[C@]34C)[C@@H]1CCC2=O` , is cell viability under 80%?
Resp: NO

Req: Determine whether this compound shows cell viability lower than 80% (ties excluded): COc1ccc(C2Sc3ccccc3N(CCN(C)C)C(=O)C2OC(C)=O)cc1 (stereo unspecified)
Resp: NO

Req: Hello, I'm reviewing records and need to know if cell viability of `CC(/C=C/C(=O)NO)=C\[C@@H](C)C(=O)c1ccc(N(C)C)cc1` is below 80%. Could you check?
Resp: YES

Req: Please let me know if `CCN(CC)CCCCNc1ncc2c(n1)N(C)C(=O)N(c1c(Cl)c(OC)cc(OC)c1Cl)C2` shows cell viability below 80%.
Resp: YES

Req: is_below(cell viability, 80%) for `O=C(Nc1ncc(-c2cc(C(F)F)nn2-c2c(Cl)cccc2Cl)s1)C1CC1` ?
Resp: YES

Req: Does the reported cell viability of the following compound sit strictly below 80%? `CNC[C@H](O)c1cccc(O)c1`
Resp: NO

Req: Please determine if `CCOC(=O)c1cncn1[C@H](C)c1ccccc1` is below 80% in terms of cell viability.
Resp: NO

Req: Given C=CC(=O)Nc1cccc(Nc2nc(NC3CCC(N(C)C)CC3)nc3c2ncn3C(C)C)c1 (stereo unspecified) , is recorded cell viability strictly lower than 80%?
Resp: YES
